target: human Adenosine A2a receptor (Homo sapiens (Human)); test: Adenosine receptor TR-FRET binding assay (A2a); details: inhibition of binding of 100 nM CA200645, CHO cell membranes
Sequence (P29274 whole entry): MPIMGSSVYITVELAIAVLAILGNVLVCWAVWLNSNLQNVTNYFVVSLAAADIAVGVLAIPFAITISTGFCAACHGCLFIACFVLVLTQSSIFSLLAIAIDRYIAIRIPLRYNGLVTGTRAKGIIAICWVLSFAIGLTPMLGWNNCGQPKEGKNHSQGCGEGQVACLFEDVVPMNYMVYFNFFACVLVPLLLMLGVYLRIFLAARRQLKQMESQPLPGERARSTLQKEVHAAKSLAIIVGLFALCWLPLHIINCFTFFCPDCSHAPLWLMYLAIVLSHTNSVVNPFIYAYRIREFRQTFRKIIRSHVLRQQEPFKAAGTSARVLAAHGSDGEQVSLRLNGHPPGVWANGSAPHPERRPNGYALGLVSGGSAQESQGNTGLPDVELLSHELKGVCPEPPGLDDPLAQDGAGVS
pKi: −log10 of the molar value.
MEASUREMENT_TYPE: pKi

a = Cc1cc(-c2sc(NC(=O)N3CC4(CNCCO4)C3)nc2-c2cccc(C#N)c2)cc(C)n1
b = CC(=O)N1C[C@H]2C[C@@H]1CN2C(=O)Nc1nc(-c2cccc(C#N)c2)c(-c2cc(C)nc(C)c2)s1
Returns: the label, a or b , whose recorded pKi is the lower number. Bench note: the answer is the label of the chosen record. b
(b: 8.96, a: 9.19)

====

target: human Adenosine A2b receptor (Homo sapiens (Human), UniProt P29275); test: Adenosine receptor TR-FRET binding assay (A2b); conditions: TR-FRET, inhibition of binding of 30 nM CA200645, CHO cell membranes
Sequence (P29275 whole entry): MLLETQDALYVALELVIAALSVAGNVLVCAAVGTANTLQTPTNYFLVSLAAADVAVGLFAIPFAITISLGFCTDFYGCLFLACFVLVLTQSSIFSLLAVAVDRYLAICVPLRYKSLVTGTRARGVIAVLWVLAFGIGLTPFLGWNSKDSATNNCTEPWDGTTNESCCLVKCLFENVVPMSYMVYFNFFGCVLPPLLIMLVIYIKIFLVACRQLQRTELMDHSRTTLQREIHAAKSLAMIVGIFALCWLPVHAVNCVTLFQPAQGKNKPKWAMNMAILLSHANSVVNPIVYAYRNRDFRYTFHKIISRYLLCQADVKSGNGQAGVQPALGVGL
pKi: −log10 of the molar value.
MEASUREMENT_TYPE: pKi

MOLECULE | pKi
Cc1cc(-c2sc(NC(=O)N3CCC(c4ncc[nH]4)CC3)nc2-c2cccc(C#N)c2)cc(C)n1 | 8.96
Cc1cc(-c2sc(NC(=O)N3CCN4CCOCC4C3)nc2-c2cccc(C#N)c2)cc(C)n1 (stereo not drawn) | 8.33
Cc1cc(-c2sc(NC(=O)N3CCN(CCO)CC3)nc2-c2cccc(C#N)c2)cc(C)n1 | 8.42
Cc1cc(-c2sc(NC(=O)N3CCNC(C)(C)C3)nc2-c2cccc(C#N)c2)cc(C)n1 | 7.48

P = Cc1cc(-c2sc(NC(=O)N3CCC(C)(C#N)CC3)nc2-c2cccc(C#N)c2C)cc(C)n1
Q = COCC1(C#N)CCN(C(=O)Nc2nc(-c3cccc(C#N)c3)c(-c3cc(C)nc(C)c3)s2)CC1
Returns: the label, P or Q , whose recorded pKi is the lower number. Bench note: the answer is the label of the chosen record. P

A = Cc1cc(-c2sc(NC(=O)N3CCC4(CC3)CNC(=O)C4)nc2-c2cccc(C#N)c2)cc(C)n1
B = Cc1cc(-c2sc(NC(=O)N3CCC(F)(C#N)CC3)nc2-c2cccc(C#N)c2)cc(C)n1
Which of the two items, A and B , has the greater recorded pKi? Bench note: the answer is the label of the chosen record. B

P = Cc1cc(-c2sc(NC(=O)N3CC4(C3)CC(C)(O)C4)nc2-c2cccc(C#N)c2)cc(C)n1
Q = N#Cc1cccc(-c2nc(NC(=O)N3CC4(COC4)C3)sc2-c2cc(CO)nc(C(F)(F)F)c2)c1
Returns: the label, P or Q , whose recorded pKi is the lower number. Bench note: the answer is the label of the chosen record. P
(P: 8.62, Q: 8.92)

====

target: human Adenosine A1 receptor (Homo sapiens (Human)); test: Adenosine receptor TR-FRET binding assay (A1); settings: inhibition of binding of 100 nM CA200645, CHO cell membranes
Sequence (P30542 whole entry): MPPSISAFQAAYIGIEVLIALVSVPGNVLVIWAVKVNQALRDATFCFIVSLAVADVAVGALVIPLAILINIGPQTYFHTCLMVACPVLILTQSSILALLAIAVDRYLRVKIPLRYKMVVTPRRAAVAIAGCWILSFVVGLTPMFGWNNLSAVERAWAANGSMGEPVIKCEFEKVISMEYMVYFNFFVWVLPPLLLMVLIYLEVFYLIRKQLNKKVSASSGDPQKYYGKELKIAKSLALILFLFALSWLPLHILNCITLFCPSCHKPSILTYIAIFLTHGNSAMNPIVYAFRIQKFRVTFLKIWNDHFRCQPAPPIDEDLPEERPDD
pKi: −log10 of the molar value.
MEASUREMENT_TYPE: pKi

MOLECULE | pKi
Cc1cc(-c2sc(NC(=O)N3CCN4C(=O)NC(=O)C4C3)nc2-c2cccc(C#N)c2)cc(C)n1 (centres unmarked) | 7.04
Cc1cc(-c2sc(NC(=O)N3CCN[C@@H](C(C)(C)O)C3)nc2-c2cccc(C#N)c2)cc(Cl)n1 | 6.87
Cc1cc(-c2sc(NC(=O)N3CCNCC3)nc2-c2cccc(C#N)c2)cc(Cl)n1 | 7.03
Cc1cc(-c2sc(NC(=O)N3CC4(C3)CC(C)(O)C4)nc2-c2cccc(C#N)c2)cc(C)n1 | 6.82
Cc1cc(-c2sc(NC(=O)N3C[C@H]4CC[C@@H](C3)N(C)C4)nc2-c2cccc(C#N)c2)cc(C)n1 | 7.03
Cc1cc(-c2sc(NC(=O)N3CCNCC3CC3CC3)nc2-c2cccc(C#N)c2)cc(C)n1 (centres unmarked) | 7.21
Cc1cc(-c2sc(NC(=O)N3CC(=O)N[C@@H](C)C3)nc2-c2cccc(C#N)c2)cc(C)n1 | 7.20
Cc1cc(-c2sc(NC(=O)N3CC[C@H](C(C)(C)O)C3)nc2-c2cccc(C#N)c2)cc(C)n1 | 7.02

====

target: UniProt P29275; experiment: Adenosine receptor TR-FRET binding assay (A2b); conditions: TR-FRET, inhibition of binding of 30 nM CA200645, CHO cell membranes
pKi: −log10 of the molar value. Structures can show the parent of a compound that is named as a salt.
MEASUREMENT_TYPE: pKi

COMPOUND | pKi
Cc1cc(-c2sc(NC(=O)N3CC[S+]([O-])CC3)nc2-c2cccc(C#N)c2)c(F)c(C)n1 [Example 10] | 8.85
Cc1cc(-c2sc(NC(=O)N3CC4(COC4)C3)nc2-c2cccc(C#N)c2)cc(CF)n1 [Example 16.6] | 8.80
N#Cc1cccc(-c2nc(NC(=O)N3CC4(COC4)C3)sc2-c2cc(Cl)nc(Cl)c2)c1 [Example 16.10] | 8.77
Cc1cc(-c2sc(NC(=O)N3CCC(CN4CCOCC4)CC3)nc2-c2cccc(C#N)c2)cc(C)n1 [Example 6.116, formate salt] | 8.00
Cc1cc(-c2sc(NC(=O)N3CCC4(CCN4C)C3)nc2-c2cccc(C#N)c2)cc(C)n1 (centres unmarked) [Example 4.36, formate salt] | 7.86
